# Test system: EKVX NSCLC
# ASSAY TEXT: NCI tumour cell line growth inhibition, 48 h
PROPERTY LABEL: TGI

Use these answered entries as a reference point.
Nc1c(S(=O)(=O)O)cc(S(=O)(=O)O)c2ccc(N=Nc3ccc(/C=C/c4ccc(N=Nc5ccc6c(S(=O)(=O)O)cc(S(=O)(=O)O)c(N)c6c5O)cc4S(=O)(=O)O)c(S(=O)(=O)O)c3)c(O)c12 | > 100 µM
Cn1c(=O)sc2cc(C(=S)N3CCCCC3)ccc21 | > 100 µM
NC(=S)NC/C=C/Cl | > 100 µM
CC(C)Oc1cccc(N2C(Nc3ccccc3)=Nc3ccncc3S2(=O)=O)c1 | > 100 µM
O=C(C(=O)n1ncc(Cl)c(Cl)c1=O)n1ncc(Cl)c(Cl)c1=O | > 83.8 µM
Cc1nc(-c2cc3ccccc3oc2=O)cs1 | > 100 µM
O=[N+]([O-])/C(C(Cl)=C(Cl)Cl)=C(/Nc1cccc2cccnc12)n1nnc2ccccc21 | > 100 µM
CSc1cnc2ccccc2c1Sc1c[nH]c2ccccc2c1=O | > 45.8 µM

Please state TGI for every molecule in the list that follows.
1. C#CCOC(=O)c1ccc(OC(C)=O)cc1
2. Cc1c(C#N)cccc1[C@@H](C)Nc1nnc(C)c2cnc(N3CCOCC3)cc12

Reply |
["> 100 µM", "> 100 µM"]

====

# Test system: U251 CNS
# ASSAY TEXT: NCI tumour cell line growth inhibition, 48 h
Consider the following compounds; for each one, report its TGI.

Use these answered entries as a reference point.
CC1CCC2(OC1)OC1C(O)C3C4CCC5CC(OC6OC(CO)C(OC7OC(CO)C(O)C(OC8OCC(O)C(O)C8O)C7OC7OC(CO)C(O)C(OC8OC(CO)C(O)C(O)C8O)C7O)C(O)C6O)C(O)CC5(C)C4CCC3(C)C1C2C (stereo not given) | 10.2 µM
CCCOC(=O)c1c(C)n(C)c2scc[n+]12 | > 100 µM
C1CN(c2nnc(N3CCC3)nn2)C1 | > 92.6 µM
CC(C)=CCC[C@@H](C)C1=C(O)C(Nc2ccccc2I)=C(C)C(=O)C1=O | > 75 µM

Please state TGI for every compound in the list that follows.
1. COc1cc2nc(-c3cccs3)nc(Nc3cccc(Cl)c3)c2cc1OC
2. CCOC(=O)C(Cc1ccc(N(CCCl)CCCl)cc1)NC(=O)C(Cc1ccccc1)NC=O (stereo not given)
3. COC(=O)c1c(-c2cccs2)oc(-c2cccs2)c1C(=O)OC
4. COc1cccc(C2c3cc4c(cc3OC(Nc3ccccc3)C2C)OCO4)c1O (stereo not given)
5. Cc1c2cccc-2ccc2c3ccccc3n(C(=O)c3ccc(Cl)cc3)c12
6. C#CC1=CC(=O)C(OC)=CC1=O

Reply |
> 100 µM
0.499 µM
> 100 µM
23.2 µM
> 100 µM
> 100 µM

====

# System: SK-OV-3 ovarian
# ASSAY TEXT: NCI tumour cell line growth inhibition, 48 h
Consider the following compounds; for each one, report its GI50.

Use these answered entries as a reference point.
O=C(/C=C/C=C/c1ccccc1)c1ccco1 | 28.8 µM
N#CC1=C(N)Oc2c(ccc3ccccc23)C1c1cc(=O)oc2ccc(Cl)cc12 (stereo not given) | 0.965 µM
O=C(Nc1ccccc1I(=O)=O)C1CCCCC1 | > 100 µM
[N-]=[N+]=NCCCn1c2c(c3ccc([N+](=O)[O-])cc3c1=O)C(=O)c1cc(Br)ccc1-2 | > 100 µM

Query compound follows.
Ask | Using known records, supply GI50 for Cc1c(C#N)cccc1[C@@H](C)Nc1nnc(C)c2cnc(N3CCOCC3)cc12
Reply | 31.3 µM
